Assay: ATG_BRE_CIS: Attagene CIS-FACTORIAL HepG2 Assay for human Bone Morphogenetic Protein (BMP) Response Element (BRE) (AID 2282933)
Details: HepG2 BMP response element reporter, Attagene transcription factor profiling; actives raise or lower the signal
The source made the active and inactive calls. The calls were made as follows: active = hit-call score of the fitted dose curve at least 0.9, where 1 is the maximum; inactive = score below 0.9.
Outcomes: 1.0 = active, 0.0 = inactive

- CCON=C(CC)C1=C(O)CC(c2c(C)cc(C)cc2C)CC1=O (stereo unspecified): 0.0
- CC(C)Oc1cc(-n2nc(C(C)(C)C)oc2=O)c(Cl)cc1Cl: 1.0
- CC1=C(C(=O)Nc2ccccc2)SCCO1: 0.0
- COc1cnc(OC)n2nc(NS(=O)(=O)c3c(OCC(F)F)cccc3C(F)(F)F)nc12: 0.0
- CCNc1nc(Cl)nc(NC(C)C)n1: 0.0
- C=CC1(C)OC(=O)N(c2cc(Cl)cc(Cl)c2)C1=O (stereo unspecified): 0.0
- Fc1ccc(Oc2ccnc3cc(Cl)cc(Cl)c23)cc1: 0.0
- C#CCOS(=O)OC1CCCCC1Oc1ccc(C(C)(C)C)cc1 (stereo unspecified): 1.0
- CCc1nn(C)c(C(=O)NCc2ccc(C(C)(C)C)cc2)c1Cl: 1.0
- CC(C)(C)c1ccc(CSc2cnn(C(C)(C)C)c(=O)c2Cl)cc1: 1.0
- COC(=O)N(OC)c1ccccc1COc1ccn(-c2ccc(Cl)cc2)n1: 1.0

* * *

Read-out: TIMP1, TIMP1 (gene 7076)
Experiment: LTEA_HepaRG_TIMP1: Life Technologies and Expression Analysis (LTEA) Assay for TIMP1 using HepaRG (AID 2283534)
Conditions: mRNA level, 48 h; actives raise or lower the signal
Calls of active or inactive are those of the source. How the source made its calls: active means hit-call score of the fitted dose curve at least 0.9, where 1 is the maximum; inactive means score below 0.9.
Classes used: Yes for active, No for inactive

* C#CCOS(=O)OC1CCCCC1Oc1ccc(C(C)(C)C)cc1 (stereo unspecified) | Yes
* COP(N)(=O)SC (stereo unspecified) | No
* COC(=O)c1ccccc1C(=O)OC | No
* CON(C)C(=O)Nc1ccc(Cl)c(Cl)c1 | No
* OC(c1ccc(Cl)cc1)(c1cncnc1)c1ccccc1Cl (stereo unspecified) | Yes
* O=C(Nc1ccccc1)Nc1ccnc(Cl)c1 | Yes
* Cc1cc(Cl)ccc1OCC(=O)O | No
* CCOP(=S)(OCC)SCn1c(=O)oc2cc(Cl)ccc21 | No
* CCCCNC(=O)n1c(NC(=O)OC)nc2ccccc21 | No
* CO/C=C(/C(=O)OC)c1ccccc1Oc1cc(Oc2ccccc2C#N)ncn1 | No
* O=C(O)c1nc(Cl)ccc1Cl | No
* CC(C)Oc1cc(-n2nc(C(C)(C)C)oc2=O)c(Cl)cc1Cl | No
* CCCCNC(=O)OCC#CI | No
* CCOC(=O)CC(SP(=S)(OC)OC)C(=O)OCC (stereo unspecified) | No
* COC(=O)C(C)Oc1ccc(Oc2ccc(Cl)cc2Cl)cc1 (stereo unspecified) | No
* COP(=S)(OC)Oc1nc(Cl)c(Cl)cc1Cl | No
* CC(C)C1(C)N=C(c2nc3ccccc3cc2C(=O)O)NC1=O (stereo unspecified) | No
* CCc1nn(C)c(C(=O)NCc2ccc(C(C)(C)C)cc2)c1Cl | Yes
* COc1cnc(OC)n2nc(NS(=O)(=O)c3c(OCC(F)F)cccc3C(F)(F)F)nc12 | No
* CCOc1cc(Oc2ccc(C(F)(F)F)cc2Cl)ccc1[N+](=O)[O-] | No
* O=C(O)COc1nc(Cl)c(Cl)cc1Cl | No
* CCNc1nc(Cl)nc(NC(C)C)n1 | No
* CCNc1nc(Cl)nc(NCC)n1 | No
* C=CCC1=C(C)C(OC(=O)C2C(C=C(C)C)C2(C)C)CC1=O (stereo unspecified) | No
* CS/C(C)=N/OC(=O)N(C)SN(C)C(=O)O/N=C(\C)SC | No
* COC(=O)N(OC)c1ccccc1COc1ccn(-c2ccc(Cl)cc2)n1 | Yes

* * *

Read-out: Monocyte Chemoattractant Protein-1 (MCP1), CCL2 (gene 6347)
Test: BSK_LPS_MCP1: BioMAP Diversity Plus: LPS Assay for Monocyte Chemoattractant Protein-1 (MCP1) Biomarker Activity (AID 2283081)
Conditions: primary human HUVEC with PBMC; actives raise or lower the signal
Calls of active or inactive are those of the source. Rule for the calls: active = hit-call score of the fitted dose curve at least 0.9, where 1 is the maximum; inactive = score below 0.9.
Classes used: Yes (active), No (inactive)

• CCOC(=O)CC(SP(=S)(OC)OC)C(=O)OCC (stereo not given) = No
• CC(C)(C)c1ccc(CSc2cnn(C(C)(C)C)c(=O)c2Cl)cc1 = Yes
• CC1=C(C(=O)Nc2ccccc2)SCCO1 = No
• CCOc1cc(Oc2ccc(C(F)(F)F)cc2Cl)ccc1[N+](=O)[O-] = No
• CCNc1nc(Cl)nc(NCC)n1 = No
• C=CCC1=C(C)C(OC(=O)C2C(C=C(C)C)C2(C)C)CC1=O (stereo not given) = Yes
• CC(Oc1ccc(Cl)cc1Cl)C(=O)O (stereo not given) = No
• CC(C)Oc1cc(-n2nc(C(C)(C)C)oc2=O)c(Cl)cc1Cl = Yes
• Fc1ccc(Oc2ccnc3cc(Cl)cc(Cl)c23)cc1 = Yes
• COC(=O)N(OC)c1ccccc1COc1ccn(-c2ccc(Cl)cc2)n1 = Yes
• CC(C)C1(C)N=C(c2nc3ccccc3cc2C(=O)O)NC1=O (stereo not given) = No
• O=C(O)COc1nc(Cl)c(Cl)cc1Cl = No
• CS/C(C)=N/OC(=O)N(C)SN(C)C(=O)O/N=C(\C)SC = Yes
• CCON=C(CC)C1=C(O)CC(c2c(C)cc(C)cc2C)CC1=O (stereo not given) = No
• N#Cc1nn(-c2c(Cl)cc(C(F)(F)F)cc2Cl)c(N)c1S(=O)C(F)(F)F (stereo not given) = Yes
• COc1nc(C)nc(NC(=O)NS(=O)(=O)c2ccccc2CCC(F)(F)F)n1 = No
• OC(c1ccc(Cl)cc1)(c1cncnc1)c1ccccc1Cl (stereo not given) = No
• C=CC1(C)OC(=O)N(c2cc(Cl)cc(Cl)c2)C1=O (stereo not given) = No
• CCNc1nc(Cl)nc(NC(C)C)n1 = No
• COP(N)(=O)SC (stereo not given) = No

* * *

The entries below come with measured AC50 values attached.
Target: rat CYP3A2, Cyp3a2 (gene 266682) (UniProt P05183)
Sequence (P05183 whole entry, looked up): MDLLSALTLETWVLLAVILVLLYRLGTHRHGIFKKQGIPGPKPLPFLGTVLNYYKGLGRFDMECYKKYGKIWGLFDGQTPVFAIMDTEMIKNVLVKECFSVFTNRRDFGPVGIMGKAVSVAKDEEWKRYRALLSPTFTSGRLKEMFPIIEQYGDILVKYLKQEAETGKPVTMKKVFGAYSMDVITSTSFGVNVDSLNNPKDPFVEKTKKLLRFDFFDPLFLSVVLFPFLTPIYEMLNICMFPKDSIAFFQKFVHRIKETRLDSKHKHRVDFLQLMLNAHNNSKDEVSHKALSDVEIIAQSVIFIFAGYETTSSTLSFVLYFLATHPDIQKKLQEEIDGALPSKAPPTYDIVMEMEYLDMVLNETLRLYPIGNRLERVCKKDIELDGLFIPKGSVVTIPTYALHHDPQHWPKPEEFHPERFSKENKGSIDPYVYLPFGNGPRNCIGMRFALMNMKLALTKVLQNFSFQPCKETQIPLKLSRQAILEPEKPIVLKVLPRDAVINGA
Experiment: NVS_ADME_rCYP3A2: NovaScreen (NVS) CYP450-related Enzyme Activity (ADME) Assay for rat CYP3A2 (AID 2283128)
The source made the active and inactive calls. The calls were made as follows: active = hit-call score of the fitted dose curve at least 0.9, where 1 is the maximum; inconclusive = response in the unintended direction; inactive = score below 0.9.
value_type: AC50

* Cc1ccc(-c2c(Cl)nc(C#N)n2S(=O)(=O)N(C)C)cc1 | 1.1 µM (active)
* CCOC(=O)CC(SP(=S)(OC)OC)C(=O)OCC (stereo not given) | 0.306 µM (active)
* CS/C(C)=N/OC(=O)N(C)SN(C)C(=O)O/N=C(\C)SC | 3.39 µM (active)
* CCCN(CCC)c1c([N+](=O)[O-])cc(S(N)(=O)=O)cc1[N+](=O)[O-] | 2.67 µM (active)
* C=CCC1=C(C)[C@@H](OC(=O)[C@@H]2[C@@H](C=C(C)C)C2(C)C)CC1=O | 7.55 µM (active)

* * *

Target: AR (gene 367)
Test: ACEA_AR_antagonist_80hr: ACEA Biosciences xCELLigence Real-Time Cell Analysis on Androgen Receptor Antagonism for Proliferation (AID 2283787);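 also: 22Rv1 human prostate cancer cells with growth followed by electrical impedance; hits lower the impedance growth signal relative to DMSO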
Records with an inconclusive call do not appear. Calls of active or inactive are those of the source. How the source made its calls: active means hit-call score of the fitted dose curve at least 0.9, where 1 is the maximum; inconclusive means response in the unintended direction; inactive means score below 0.9.
Classes used: label 1 (active), label 0 (inactive)

• CN(C)C(=S)SSC(=S)N(C)C = label 1
• CC1=C(C(=O)Nc2ccccc2)SCCO1 = label 0
• Cc1cc(Cl)ccc1OCC(=O)O = label 0
• CO/C=C(/C(=O)OC)c1ccccc1Oc1cc(Oc2ccccc2C#N)ncn1 = label 1
• CCCC1COC(Cn2cncn2)(c2ccc(Cl)cc2Cl)O1 (stereo unspecified) = label 1
• N#Cc1nn(-c2c(Cl)cc(C(F)(F)F)cc2Cl)c(N)c1S(=O)C(F)(F)F (stereo unspecified) = label 1

* * *

Read-out: Interleukin-1 alpha (IL1a), IL1A (gene 3552)
Test: BSK_BE3C_IL1a: BioMAP Diversity Plus: BE3C Assay for Interleukin-1 alpha (IL1a) Biomarker Activity (AID 2283016)
Settings: primary human bronchial epithelial cells; actives raise or lower the signal
Active and inactive are the calls of the source. How the source made its calls: active means hit-call score of the fitted dose curve at least 0.9, where 1 is the maximum; inactive means score below 0.9.
Classes used: y = active, n = inactive

* CC(C)Oc1cc(-n2nc(C(C)(C)C)oc2=O)c(Cl)cc1Cl | n
* CCON=C(CC)C1=C(O)CC(c2c(C)cc(C)cc2C)CC1=O (configuration not stated) | n
* COc1nc(C)nc(NC(=O)NS(=O)(=O)c2ccccc2Cl)n1 | n
* COC(=O)c1ccccc1C(=O)OC | n
* CCCC1COC(Cn2cncn2)(c2ccc(Cl)cc2Cl)O1 (configuration not stated) | n
* CC(C)(C)c1ccc(CSc2cnn(C(C)(C)C)c(=O)c2Cl)cc1 | n
* CCOC(=O)CC(SP(=S)(OC)OC)C(=O)OCC (configuration not stated) | n
* C#CCOS(=O)OC1CCCCC1Oc1ccc(C(C)(C)C)cc1 (configuration not stated) | y
* C=CCC1=C(C)[C@@H](OC(=O)[C@@H]2[C@@H](C=C(C)C)C2(C)C)CC1=O | n
* COC(=O)C(C)Oc1ccc(Oc2ccc(Cl)cc2Cl)cc1 (configuration not stated) | n
* CNC(=S)S | n
* CCNc1nc(Cl)nc(NCC)n1 | n
